Please provide measured switch fluorescence ratio for the entries that follow.
system: ATP; assay: switch fluorescence ratio, 500 uM ATP over buffer (Cy3 cluster intensity, sum of 5 cycles each) (fold (ratio)); higher = stronger signal-on switching upon ATP binding; sequences stand for … in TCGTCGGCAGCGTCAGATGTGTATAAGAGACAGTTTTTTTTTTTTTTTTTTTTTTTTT…TC; settings: aptamer strand: ATP DNA aptamer (quencher-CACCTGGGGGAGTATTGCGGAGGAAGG + anchor), 100 nM annealed; ATP concentration: 500 uM;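 further: ATP exposure 15 min at 22 °C before imaging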
One number for each entry.

Consider the reported switch fluorescence ratio for these sequences:
TCCTGTCTTT | 1.01
AGAAATTTGA | 0.98

Fill in switch fluorescence ratio for each of the 7 sequences listed.
1. GAGTATGGGT
2. ATGCATCTAT
3. CGTTCTGGTC
4. GATATTGCTA
5. AATTAAGGAT
6. GGGGCGGGTT
7. TTTGCTTTTT

Key:
[1, 0.989, 0.999, 0.975, 0.975, 1.02, 1]

Batch request: switch fluorescence ratio for each of the following sequences.
1. AGCGGATTGT
2. CAACGAGTGG
3. GGTAAAAGTT
4. GTTGGGATAA
5. ATTTTTCTGA
6. GATCGCTAGG

Key:
1. 1
2. 1.01
3. 1.01
4. 1
5. 1
6. 0.984

Report switch fluorescence ratio for every entry below.
1. ATAGGGGTGC
2. CGAACTTGTG
3. TGAACAGGGG
4. TTTGGGAGGC
5. TAACTGTAGG
6. ATATGCGTAT

Key:
1.02
1.01
0.987
1.01
1.02
1.01
